molecular target: human CD123 on cells (human) (UniProt P26951); experiment: flow cytometry, TF-1 cells, 3 µg antibody
Sequence (P26951 19-378): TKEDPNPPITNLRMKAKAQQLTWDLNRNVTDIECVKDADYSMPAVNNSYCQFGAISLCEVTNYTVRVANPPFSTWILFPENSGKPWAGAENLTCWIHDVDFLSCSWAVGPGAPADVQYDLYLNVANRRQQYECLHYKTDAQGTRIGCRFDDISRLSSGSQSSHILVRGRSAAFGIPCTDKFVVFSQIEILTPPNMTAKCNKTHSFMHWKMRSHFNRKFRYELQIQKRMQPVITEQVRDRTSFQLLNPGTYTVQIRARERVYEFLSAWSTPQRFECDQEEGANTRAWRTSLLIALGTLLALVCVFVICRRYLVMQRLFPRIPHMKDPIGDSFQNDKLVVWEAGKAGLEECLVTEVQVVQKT
experimental_readout: % FITC positive cells (%)
Write the number in % without appending the unit.

binder | display_unit | % FITC positive cells
CODV-Fab BFX-2F8-D6 × CD3 (bispecific antibody, V domains shown, not shown: a dimerising Fc or GST; small tags and cut ends) VH: QVQLKESGPGLVQPSQTLSLTCTVSGFSLTSYGVSWVRQPPGKGLEWIATISSAGSTYYDLVLKSRLSITRDTSKSQVFLKVHSLQTEDTAIYLCARDAPVFNYGSYNAMDSWGQGTSVTVSS VL: DIQMTQSPSFLSATVGDRVTINCKASQNINKYLNWYQQKLGEAPKRLIYNTNSLQTGIPSRFSGSGSGTDYTLTISSLQPEDVATYFCLQHKSGLTFGSGTKLEIK | % | 9.3

Continue with the next binder.
Lookup: Please give the documented % FITC positive cells of CODV-Fab BFX-9D7-C8 × CD3 (bispecific antibody, part only; not given: CD3 arm, linkers, constant domains, tag, V domains shown, not shown: another chain or arm of the molecule; a dimerising Fc or GST; small tags and cut ends) VH: EVKLQESGPSLVQSSQTLSLTCTVSGFSLTSYHIHWVRQTPGKGLEWMGVMWSDGDTSYNSALKSRLSISRDTSQSQVFLKMNSLQTEDTATYYCARGYYSSYLYLWFAYWGQGTLVTVSS VL: DIVMTQSPSSLAVSEGETVTINCKSSQSFLSSGDGKNYVAWYQYKPGQSPKLLIYWASTRQSGVPDRFIGSGSGTDFTLTISTVQAEDLAIYYCQQYYDTPLTFGSGTKLEIK
Found: 50.2
